target or system: Diacylglycerol kinase alpha (Homo sapiens, UniProt P23743)
Sequence (P23743 whole entry): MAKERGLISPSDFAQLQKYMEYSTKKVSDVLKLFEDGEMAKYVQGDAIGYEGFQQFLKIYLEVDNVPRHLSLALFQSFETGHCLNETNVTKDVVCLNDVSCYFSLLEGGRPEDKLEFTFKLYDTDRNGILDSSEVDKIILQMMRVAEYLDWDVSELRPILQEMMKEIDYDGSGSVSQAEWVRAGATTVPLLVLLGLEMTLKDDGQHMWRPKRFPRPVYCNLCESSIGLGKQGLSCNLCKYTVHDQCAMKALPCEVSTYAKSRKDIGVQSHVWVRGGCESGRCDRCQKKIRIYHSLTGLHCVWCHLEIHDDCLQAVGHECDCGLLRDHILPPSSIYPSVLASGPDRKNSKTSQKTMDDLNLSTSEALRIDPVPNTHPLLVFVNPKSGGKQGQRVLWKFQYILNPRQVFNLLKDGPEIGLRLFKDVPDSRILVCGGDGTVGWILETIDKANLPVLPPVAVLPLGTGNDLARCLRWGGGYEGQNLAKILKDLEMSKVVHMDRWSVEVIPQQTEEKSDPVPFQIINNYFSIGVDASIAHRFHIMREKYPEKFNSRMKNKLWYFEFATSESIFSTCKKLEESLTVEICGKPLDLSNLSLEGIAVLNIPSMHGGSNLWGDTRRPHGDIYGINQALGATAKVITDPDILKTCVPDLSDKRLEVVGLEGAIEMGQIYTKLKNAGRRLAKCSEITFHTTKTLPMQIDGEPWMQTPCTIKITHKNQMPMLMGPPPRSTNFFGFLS

chemical smiles: CN(C)c1ccc2c(N(C)c3cccc(-c4ccc(C5CC5)cc4)c3)nc3nncn3c2n1
IC50 / µM: 0.0667

Sourced from BindingDB's records for patent US11926628
